# system.name: 1000006: catalytic domain of protein tyrosine phosphatase (2G59) (Homo sapiens)
# Construct: the catalytic domain of PTP from H. sapiens (PDB ID: 2G59) (1000006); New York structural genomics consortium (gift)
# Sequence (Q16827 938-1195 limits assumed): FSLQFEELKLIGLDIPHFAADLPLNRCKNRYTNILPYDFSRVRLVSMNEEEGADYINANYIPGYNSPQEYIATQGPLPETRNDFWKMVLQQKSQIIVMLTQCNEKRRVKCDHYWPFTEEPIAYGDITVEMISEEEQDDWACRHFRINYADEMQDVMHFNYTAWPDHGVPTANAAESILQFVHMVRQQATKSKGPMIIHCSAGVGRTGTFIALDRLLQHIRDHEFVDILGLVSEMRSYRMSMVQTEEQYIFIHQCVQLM
# method.summary: Thermal shift (thermal melt) assay, Sypro orange
# Type: binding, H. sapiens
metric: Kd

>>> print(df.to_string())
                                   compound  metric  experimental_result
0  COc1cc(C(=O)C(=O)c2cc(OC)c(O)c(OC)c2)cc(OC)c1O [NSC 16736]      Kd             ~44.5 µM

----------
# system.name: Tryptophanyl tRNA synthetase (TrpRS) (Homo sapiens, UniProt P23381)
# Sequence (P23381 whole entry): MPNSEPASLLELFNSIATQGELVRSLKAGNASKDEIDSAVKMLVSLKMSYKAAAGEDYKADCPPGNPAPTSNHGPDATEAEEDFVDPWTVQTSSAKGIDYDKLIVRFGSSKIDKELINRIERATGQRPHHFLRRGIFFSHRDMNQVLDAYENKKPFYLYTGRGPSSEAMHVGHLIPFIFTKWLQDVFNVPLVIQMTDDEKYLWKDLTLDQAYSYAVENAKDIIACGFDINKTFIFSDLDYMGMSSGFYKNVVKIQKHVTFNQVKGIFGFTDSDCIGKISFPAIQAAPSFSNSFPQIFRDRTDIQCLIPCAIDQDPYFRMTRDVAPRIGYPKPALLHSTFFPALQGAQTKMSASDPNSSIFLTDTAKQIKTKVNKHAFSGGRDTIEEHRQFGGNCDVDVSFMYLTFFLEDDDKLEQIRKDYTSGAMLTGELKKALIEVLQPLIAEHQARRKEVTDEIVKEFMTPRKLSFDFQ
# method.summary: Thermal shift (thermal melt) assay, Sypro orange
# Format: binding, H. sapiens
# reported.conditions: Table S4; TrpRS; ratio ΔFmelt/ΔFtotal
metric: Q (quality score)

>>> df
                                   compound  experimental_result
0                     Oc1cccc2nc3ccccc3nc12                  0.6
1  Nc1ccc(NC(=O)c2ccc(C(=O)Nc3ccc(N)cc3)cc2)cc1                 0.95
2        CCOc1ccc(NC(=O)c2cc3ccccc3cc2O)cc1                  0.8
3  CCN(CC)CCNC(=O)c1c(C)[nH]c(/C=C2\C(=O)Nc3ccc(F)cc32)c1C [NSC 750690, Sunitinib, reference compound]                  1.3
4  O=C(Nc1cccc([N+](=O)[O-])c1)c1cc2ccccc2cc1O                  0.4
